# TEST_DESCRIPTION: Stability in human liver microsomes assessed as parent compound remaining at 5 uM measured after 1 hr
# Type: ADME, Microsome
# CONDITION_SET: read-out: Stability
RESULT_TYPE: remaining at 1 h, 5 µM (%)

COMPOUND: CC(O[C@H]1CC[C@]2(CCCO2)CC1)c1nc(-c2ccc(CS(C)(=O)=O)c(F)c2)no1 (stereo partly specified)
RECORDED_MEASUREMENT: 49
--
COMPOUND: CC(O[C@H]1CC[C@@]2(CC1)CC(C)(C)CO2)c1nc(-c2ccc(CS(C)(=O)=O)c(F)c2)no1 (stereo partly specified)
RECORDED_MEASUREMENT: 15
--
COMPOUND: C[C@@H](O[C@H]1CC[C@]2(CC1)COC(C)(C)C2)c1nc(-c2cc(F)c(CS(C)(=O)=O)c(F)c2)no1
RECORDED_MEASUREMENT: 65
--
COMPOUND: C[C@@H](O[C@H]1CC[C@@]2(CC1)CC(F)(F)CCO2)c1nc(-c2cc(F)c(CS(C)(=O)=O)c(F)c2)no1
RECORDED_MEASUREMENT: 97

a = C[C@@H](O[C@H]1CC[C@]2(CCC(F)(F)CO2)CC1)c1nc(-c2cc(F)c(CS(C)(=O)=O)c(F)c2)no1
b = CC(O[C@H]1CC[C@]2(CCCCO2)CC1)c1nc(-c2ccc(CS(C)(=O)=O)c(F)c2)no1 (stereo partly specified)
Lab note: record which item had the higher remaining at 1 h, 5 µM, a or b . Your choice should be expressed through its label.
a
